Provenance of the data: ChEMBL document CHEMBL1159061

system: HCT-15; test: Antiproliferative activity against human HCT15 cells at 10 uM after 72 hrs by MTS assay; assay type: functional; details: HCT-15, 72 h
Label rule, in plain words: inhibition at 10 µM of 40% and up is true (1), under 40% is false (0).

- entry smiles: "COC(=O)c1ccc(O)c(-c2nc(C(=O)NCCOCCOCCNC(=O)c3csc(-c4cc(C(=O)OC)ccc4O)n3)cs2)c1"
  assigned category: "false (0)"
- entry smiles: "CC(=O)N(O)CCCCCNC(=O)CCC(=O)N(O)CCCCCNC(=O)CCC(=O)N(O)CCCCCN"
  assigned category: "true (1)"
- entry smiles: "COC(=O)c1ccc(O)c(-c2nc(C(=S)NCCOCCOCCNC(=S)c3csc(-c4cc(C(=O)OC)ccc4O)n3)cs2)c1"
  assigned category: "true (1)"
- entry smiles: "O=C(O)c1ccc(O)c(-c2nc(C(=O)NCCOCCOCCNC(=O)c3csc(-c4cc(C(=O)O)ccc4O)n3)cs2)c1"
  assigned category: "false (0)"
- entry smiles: "O=C(O)c1ccc(O)c(-c2nc(C(=S)NCCOCCOCCNC(=S)c3csc(-c4cc(C(=O)O)ccc4O)n3)cs2)c1"
  assigned category: "false (0)"
